- tested system: hGPR40 (Homo sapiens)
- Sequence (O14842 whole entry): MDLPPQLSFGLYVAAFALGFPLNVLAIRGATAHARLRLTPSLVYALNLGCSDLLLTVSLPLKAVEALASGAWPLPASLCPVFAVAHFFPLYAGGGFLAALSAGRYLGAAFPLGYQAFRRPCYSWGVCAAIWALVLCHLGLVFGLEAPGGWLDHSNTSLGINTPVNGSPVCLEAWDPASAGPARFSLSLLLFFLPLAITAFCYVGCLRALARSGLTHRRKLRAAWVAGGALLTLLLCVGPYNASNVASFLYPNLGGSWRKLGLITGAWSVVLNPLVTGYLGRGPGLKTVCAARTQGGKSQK
- experiment summary: Calcium flux assay to detect GPR40 activation
- stated conditions: CHO-K cells stably expressing hGPR40; Fluo-4 NW; read for 4 min at 5 s intervals
readout label: EC50

[[record]]
molecule = "CO/N=C(\\COc1ccc(COc2ccc(C(C)(C#N)CC(=O)O)cc2)cc1)c1ccccc1 (centres unmarked) [Compound 59]"
obs_value = "> 100 nM"

[[record]]
molecule = "CO/N=C(/COc1ccc(COc2ccc(C(C#N)CC(=O)O)cc2)cc1)c1ccc(F)cc1 (racemic) [Compound 22]"
obs_value = "< 10 nM"

[[record]]
molecule = "CO/N=C(\\COc1ccc(COc2ccc(CCC(N)=O)cc2)cc1)c1ccccc1 [Compound 120]"
obs_value = "> 100 nM"


Which measured EC50 value corresponds to N#CC(CC(=O)O)c1ccc(OCc2ccc(OC/C(=N\OC3CCCCC3)c3ccccc3)cc2)cc1 (centres unmarked) [Compound 111] ?
10 to 100 nM

What do you get for CO/N=C(\c1ccccc1)c1cccc(COc2ccc(CC(=O)O)cc2)c1 [Compound 19] ?
> 100 nM

What do you get for CO/N=C(/c1ccccc1)c1cccc(COc2ccc(C(C#N)CC(=O)O)cc2)c1 (centres unmarked) [Compound 12] ?
> 100 nM

Recorded values, source patent US9278915B2.
